Some compounds, each annotated with its measured pIC50.
target: [35S]-TBPS binding, rat brain cortical membranes (GABAA receptor); assay: Steroid inhibition of [35S]-TBPS binding; conditions: 3 nM [35S]-TBPS, in the presence of 5 mM GABA, 90 min at room temp
pIC50: −log10 of the molar value.

Reference set (4 entries):
smiles_code	experimental_system	pIC50
COC[C@@]1(O)CC[C@H]2[C@H](CC[C@@H]3[C@@H]2CC[C@]2(C)[C@@H](C(=O)Nc4cc(C#N)ncn4)CC[C@@H]32)C1	[35S]-TBPS binding, rat brain cortical membranes (GABAA receptor)	> 7.00
CCC[C@@]1(O)CC[C@H]2[C@H](CC[C@@H]3[C@@H]2CC[C@]2(C)[C@@H](C(=O)Nc4cnc(C#N)nc4)CC[C@@H]32)C1	[35S]-TBPS binding, rat brain cortical membranes (GABAA receptor)	6.00 to 7.00
CCC[C@@]1(O)CC[C@H]2[C@H](CC[C@@H]3[C@@H]2CC[C@]2(C)[C@@H](C(=O)Nc4ccc(F)cn4)CC[C@@H]32)C1	[35S]-TBPS binding, rat brain cortical membranes (GABAA receptor)	> 7.00
C[C@@]1(O)CC[C@H]2[C@H](CC[C@@H]3[C@@H]2CC[C@]2(C)[C@@H](C(=O)Nc4ccccc4)CCC[C@@H]32)C1	[35S]-TBPS binding, rat brain cortical membranes (GABAA receptor)	> 7.00

Enter reported pIC50 observed with [35S]-TBPS binding, rat brain cortical membranes (GABAA receptor) for `CCC[C@@]1(O)CC[C@H]2[C@H](CC[C@@H]3[C@@H]2CC[C@]2(C)[C@@H](C(=O)Nc4cc(C#N)ncn4)CC[C@@H]32)C1`
> 7.00
